Target: hNLRP3 (Homo sapiens, UniProt Q96P20)
Construct: THP-1 cells were purchased from the American Type Culture Collection
Sequence (Q96P20 whole entry): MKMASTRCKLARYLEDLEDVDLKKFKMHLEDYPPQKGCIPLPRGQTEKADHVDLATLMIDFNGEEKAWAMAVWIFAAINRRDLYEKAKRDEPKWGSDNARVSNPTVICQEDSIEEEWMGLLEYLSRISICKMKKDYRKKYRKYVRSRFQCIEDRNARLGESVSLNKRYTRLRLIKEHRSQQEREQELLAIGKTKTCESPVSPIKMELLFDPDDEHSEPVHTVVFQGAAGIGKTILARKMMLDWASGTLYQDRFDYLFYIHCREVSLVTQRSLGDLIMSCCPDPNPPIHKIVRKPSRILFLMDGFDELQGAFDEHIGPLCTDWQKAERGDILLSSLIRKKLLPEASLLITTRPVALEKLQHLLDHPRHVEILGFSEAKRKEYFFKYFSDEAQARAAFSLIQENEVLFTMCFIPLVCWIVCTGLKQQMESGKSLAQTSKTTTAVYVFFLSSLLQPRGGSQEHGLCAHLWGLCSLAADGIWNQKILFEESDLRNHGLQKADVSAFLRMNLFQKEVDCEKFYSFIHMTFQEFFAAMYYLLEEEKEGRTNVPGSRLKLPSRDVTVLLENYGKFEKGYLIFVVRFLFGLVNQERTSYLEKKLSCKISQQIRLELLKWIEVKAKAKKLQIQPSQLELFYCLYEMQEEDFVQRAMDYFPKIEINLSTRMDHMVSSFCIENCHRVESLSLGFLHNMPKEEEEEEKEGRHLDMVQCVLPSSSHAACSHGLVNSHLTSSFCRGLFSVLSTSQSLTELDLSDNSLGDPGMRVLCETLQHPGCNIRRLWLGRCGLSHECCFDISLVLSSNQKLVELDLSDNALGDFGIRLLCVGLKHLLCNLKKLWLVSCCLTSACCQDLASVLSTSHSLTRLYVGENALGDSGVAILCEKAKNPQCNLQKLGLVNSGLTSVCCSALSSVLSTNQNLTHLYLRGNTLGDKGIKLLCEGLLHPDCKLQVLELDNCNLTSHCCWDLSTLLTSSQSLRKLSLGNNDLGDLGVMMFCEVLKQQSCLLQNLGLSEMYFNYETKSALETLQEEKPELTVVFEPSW
Assay: Measurement of IL-1β production in PMA-differentiated THP-1 cells (hNLRP3 agonist; ELISA, alternative and hTRF procedures)
Metric: EC50 (nM)
Write the answer as a number in nM, unit excluded.

response.value for CCN(Cc1nc2c(N)nc3cc(-c4cc[nH]n4)ccc3c2[nH]1)C(=O)c1nccs1 (field: EC50) = 1040

// EC50 value for CCC(=O)NCc1nc2c(N)nc3cc(-c4cc[nH]n4)ccc3c2[nH]1 : 720

Short answer for COc1ccc(Cn2c(Cn3cnccc3=O)nc3c(N)nc4cc(-c5cc[nH]n5)ccc4c32)cc1 : EC50 was 3830

Just so you know, measured EC50 for CCN(Cc1nc2c(N)nc3cc(-c4cc[nH]n4)ccc3c2[nH]1)C(=O)c1cn(C)c2ccccc12 came out at 1300

Lookup result for Nc1nc2cc(-c3ccccc3Cl)ccc2c2[nH]c(CN3CCCC3=O)nc12 ; measured EC50: 1400

Entry N#Cc1cccc(-c2ccc3c(c2)nc(N)c2nc(CN4CCCC4=O)[nH]c23)c1 , EC50 reported as 10100

From: patent US12351580B2
